- experimental-system: HLA-A*03:01
- assay-comment: IEDB peptide-MHC binding, purified MHC/direct/fluorescence; filed as Kd, often an IC50 or EC50 that approximates it; bounds were set here for any values at or beyond the usual limits of such assays
- run-conditions: source organism: Orthohantavirus andesense
pKd: −log10 of the molar value.
measure-name: pKd

**Q:** Using known records, supply pKd for `EKLKKKSAF`
**A:** ≤ 4.70

* * *

- experimental-system: HLA-B*15:01
- assay-comment: IEDB peptide-MHC binding, purified MHC/direct/fluorescence; filed as Kd, often an IC50 or EC50 that approximates it; bounds were set here for any values at or beyond the usual limits of such assays
- run-conditions: source organism: Pseudomonas aeruginosa
The following sequences are listed with their measured Kd values.

residue-sequence	measured-value
VVAVGGLAI	144 nM

**Q:** State, for HLA-B*15:01, measured Kd of the sequence listed here: `LPQTRWQAV`
**A:** ≥ 20000 nM
